biological target: THR beta-LBD (Homo sapiens, UniProt P10828); construct: THR beta-LBD (the final concentration is 0.5 nM) was added to the 384-well assay plate; purchased Invitrogen PV4686; test: THR-β Coactivator Peptide Recruitment Assay (LanthaScreen TR-FRET); assay type: biochemical; conditions: TR-FRET coactivator recruitment, THR beta-LBD 0.5 nM; read-out: THRβ EC50
Sequence (P10828 217-461 limits assumed): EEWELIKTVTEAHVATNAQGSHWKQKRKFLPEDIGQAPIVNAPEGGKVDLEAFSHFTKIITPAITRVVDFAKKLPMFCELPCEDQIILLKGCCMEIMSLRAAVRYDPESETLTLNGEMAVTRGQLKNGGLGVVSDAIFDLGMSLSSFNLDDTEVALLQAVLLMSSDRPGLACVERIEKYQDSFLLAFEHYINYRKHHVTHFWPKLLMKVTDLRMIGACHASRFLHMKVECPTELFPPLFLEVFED
pEC50: −log10 of the molar value.
observable: pEC50

>>> experimental_result("O=C(NC1CCC1)c1cc(Oc2c(Cl)cc(-n3nc(C(F)(F)F)c(=O)[nH]c3=O)cc2Cl)c(F)cc1O")
"< 7.00"
>>> experimental_result("O=c1[nH]c(=O)n(-c2cc(Cl)c(Oc3cc(S(=O)(=O)NC4CCC4)c(O)cn3)c(Cl)c2)nc1C(F)F")
"> 8.70"
>>> experimental_result("CO[C@H]1C[C@@H](NS(=O)(=O)c2cc(Oc3c(Cl)cc(-n4nc(C(F)F)c(=O)[nH]c4=O)cc3Cl)ccc2O)C1")
"7.70 to 8.70"
>>> experimental_result("CS(=O)(=O)N[C@@H]1CCN(S(=O)(=O)c2cc(Oc3c(Cl)cc(-n4nc(C(F)F)c(=O)[nH]c4=O)cc3Cl)ccc2O)C1")
"7.70 to 8.70"
>>> experimental_result("O=c1[nH]c(=O)n(-c2cc(Cl)c(Oc3ccc(O)c(S(=O)(=O)N[C@H]4C[C@H](C(=O)NC5CC5)C4)c3)c(Cl)c2)nc1C(F)F")
"7.70 to 8.70"
>>> experimental_result("O=c1[nH]c(=O)n(-c2cc(Cl)c(Oc3ccc(O)c(S(=O)(=O)N[C@H]4CC[C@@H](O)C4)c3)c(Cl)c2)nc1C(F)F")
"7.70 to 8.70"
>>> experimental_result("O=c1[nH]c(=O)n(-c2cc(Cl)c(S(=O)(=O)c3ccc(O)c(C4CCC4)c3)c(Cl)c2)nc1C(F)(F)F")
"< 7.00"
>>> experimental_result("O=C(NC1CC1)C1(NS(=O)(=O)c2cc(Oc3c(Cl)cc(-n4nc(C(F)F)c(=O)[nH]c4=O)cc3Cl)ccc2O)CC1")
"7.70 to 8.70"
>>> experimental_result("O=c1[nH]c(=O)n(-c2cc(Cl)c(Oc3cc(S(=O)(=O)NC45CC(O)(C4)C5)c(O)cn3)c(Cl)c2)nc1C(F)F")
"7.00 to 7.70"
>>> experimental_result("O=c1[nH]c(=O)n(-c2cc(Cl)c(Oc3ccc(O)c(S(=O)(=O)N4CC[C@H](O)C4)c3)c(Cl)c2)nc1C(F)F")
"> 8.70"
>>> experimental_result("C[C@]1(O)C[C@@H](NS(=O)(=O)c2cc(Oc3c(Cl)cc(-n4nc(C(F)F)c(=O)[nH]c4=O)cc3Cl)ncc2O)C1")
"< 7.00"
>>> experimental_result("O=c1[nH]c(=O)n(-c2cc(Cl)c(Oc3cc(S(=O)(=O)NC4COC4)c(O)cn3)c(Cl)c2)nc1C(F)F")
"> 8.70"
>>> experimental_result("O=c1[nH]c(=O)n(-c2cc(Cl)c(Oc3ccc(O)c(S(=O)(=O)N[C@H]4C[C@@H](O)C4)c3)c(Cl)c2)nc1C(F)F")
"> 8.70"
>>> experimental_result("CS(=O)(=O)N1CC[C@H](NS(=O)(=O)c2cc(Oc3c(Cl)cc(-n4nc(C(F)F)c(=O)[nH]c4=O)cc3Cl)ccc2O)C1")
"7.70 to 8.70"
>>> experimental_result("CCS(=O)(=O)c1cc(Oc2c(Cl)cc(-n3nc(C(F)F)c(=O)[nH]c3=O)cc2Cl)ncc1O")
"> 8.70"
>>> experimental_result("C[C@H](CO)NS(=O)(=O)c1cc(Oc2c(Cl)cc(-n3nc(C(F)F)c(=O)[nH]c3=O)cc2Cl)ccc1O")
"> 8.70"
>>> experimental_result("CCS(=O)(=O)N[C@H]1CCN(S(=O)(=O)c2cc(Oc3c(Cl)cc(-n4nc(C(F)F)c(=O)[nH]c4=O)cc3Cl)ccc2O)C1")
"> 8.70"
>>> experimental_result("CNS(=O)(=O)c1cc(Oc2c(Cl)cc(-n3nc(C(F)F)c(=O)[nH]c3=O)cc2Cl)ccc1O")
"> 8.70"
>>> experimental_result("O=c1[nH]c(=O)n(-c2cc(Cl)c(Oc3cc(S(=O)(=O)NC45CCC(O)(C4)C5)c(O)cn3)c(Cl)c2)nc1C(F)F")
"7.00 to 7.70"
>>> experimental_result("NS(=O)(=O)c1cc(Oc2c(Cl)cc(-n3nc(C(F)F)c(=O)[nH]c3=O)cc2Cl)ccc1O")
"7.70 to 8.70"
>>> experimental_result("O=c1[nH]c(=O)n(-c2cc(Cl)c(Oc3ccc(O)c(S(=O)(=O)NC4CC4)c3)c(Cl)c2)nc1C(F)(F)F")
"> 8.70"
>>> experimental_result("O=C(NC1CC1)C1(NS(=O)(=O)c2cc(Oc3c(Cl)cc(-n4nc(C(F)F)c(=O)[nH]c4=O)cc3Cl)ncc2O)CCC1")
"< 7.00"
>>> experimental_result("O=C(NC1CCC1)c1cc(Oc2c(Cl)cc(-n3nc(C(F)F)c(=O)[nH]c3=O)cc2Cl)c(F)cc1O")
"< 7.00"
>>> experimental_result("Cc1nn(-c2cc(Cl)c(Oc3cc(S(=O)(=O)N[C@@H]4CCOC4)c(O)cn3)c(Cl)c2)c(=O)[nH]c1=O")
"7.00 to 7.70"
>>> experimental_result("O=c1[nH]c(=O)n(-c2cc(Cl)c(Oc3cc(S(=O)(=O)N[C@@H]4CCOC4)c(O)cn3)c(Cl)c2)nc1C(F)F")
"7.70 to 8.70"
>>> experimental_result("O=C(NC1CCC1)c1cc(Oc2c(Cl)cc(-n3nc(C(F)F)c(=O)[nH]c3=O)cc2Cl)ccc1O")
"7.70 to 8.70"
